Across several studies, compounds have been characterized by their pKi on Adenosine receptor A1 (Rattus norvegicus); a selection follows.
Molecular target: Adenosine receptor A1 (Rattus norvegicus)
Sequence (P25099 whole entry): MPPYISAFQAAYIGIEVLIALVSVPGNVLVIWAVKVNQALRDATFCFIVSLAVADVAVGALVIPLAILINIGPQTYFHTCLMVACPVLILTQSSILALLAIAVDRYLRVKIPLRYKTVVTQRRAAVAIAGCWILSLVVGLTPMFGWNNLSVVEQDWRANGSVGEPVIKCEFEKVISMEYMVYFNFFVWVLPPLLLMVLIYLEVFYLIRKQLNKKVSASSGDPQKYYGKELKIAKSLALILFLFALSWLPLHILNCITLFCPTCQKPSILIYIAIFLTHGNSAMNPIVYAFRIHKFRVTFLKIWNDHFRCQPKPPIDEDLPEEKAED
pKi: −log10 of the molar value.

Q: Requested read-out: pKi. Entry: Nc1ncnc2c1ncn2[C@@H]1O[C@H](CO)[C@@H](O)[C@H]1N
Result: < 5.00

Q: Would you mind doing Nc1nc(NC[C@H]2CCCN2Cc2c(F)cccc2F)nc2nc(-c3ccco3)nn12 as well?
Result: < 6.37

Q: Continue with Nc1cc(N2CCN3[C@@H](COc4ccc5cccnc5c4)CCC[C@H]3C2)nc2nc(-c3ccco3)nn12 (racemic)
Result: < 6.30

Q: Field entry: Cn1c(=O)c2[nH]c(-c3ccccc3)cc2n(C)c1=O
Result: 7.33

Q: Then CCCCC#Cc1nc(N)c2ncn(C3O[C@H](C(=O)NC)[C@@H](O)[C@H]3O)c2n1 (stereo partly specified) ?
Result: 5.75

Continuing:
Q: For CCCn1c(=O)c2[nH]c(Cc3cccs3)nc2n(Cc2ccco2)c1=O , what is its reported pKi?
Result: 6.47

Q: Another: CCCCn1c(=O)[nH]c2nc(-c3ccccc3)[nH]c2c1=O
Result: 7.40

Q: Same again, this time with COc1ccccc1CN1CCN(c2nc(N)n3nc(-c4ccco4)nc3n2)CC1
Result: < 6.30

Q: // query: Nc1nc(N2CCN3C[C@@H](CN(Cc4cccnc4)Cc4cccnc4)CC[C@H]3C2)nc2nc(-c3ccco3)nn12
Result: < 6.00

Q: Repeat with CCCN1C(=O)N2CC[C@@H](CC)N=C2c2[nH]c(C34CCC(O)(CC3)CC4)nc21
Result: < 6.60

Q: Can you check Nc1nc(N2CCN3C[C@@H](CNCc4ccncc4)CC[C@H]3C2)nc2nc(-c3ccco3)nn12 (racemic) next?
Result: < 6.30

###

// cross-source set; read-out = pKi; system = Adenosine receptor A1 (Rattus norvegicus)
Please keep in mind that pKi is minus log10 of the molar concentration; only the number is needed.

Some solved cases for reference:
Q: Value lookup for pKi; key = CCCn1c(=O)c2c(nc3n2CCCN3CCc2ccc(OCC(=O)NCCCN3CCCC3)cc2)n(CCC)c1=O
Result: 6.84

Q: What do you have for CCCn1c(=O)c2nc(C3CC4CC3C3OC43)[nH]c2n(CCC)c1=O (stereo in doubt; 8) ?
Result: 8.29

Q: One more molecule: CCNC(=O)[C@H]1OC(n2cnc3c(N)nc(C#CNCCc4ccc(CC(=O)OC)cc4)nc32)[C@H](O)[C@@H]1O (some centres undefined)
Result: 5.90

Q: // same read-out, input: Cc1nc2c(=O)n(C)c(=O)n(C)c2[nH]1
Result: 5.06

Q: What about CCCCC#Cc1nc(N)c2ncn(C3O[C@H](C(=O)NCCC)[C@@H](O)[C@H]3O)c2n1 (some centres undefined) ?
Result: 5.74

---
Q: Query: pKi; subject: Cn1c(=O)c2c(nc3n2CCCN3Cc2ccccc2F)n(C)c1=O
Result: 5.75

Q: Also CCn1c(=O)c2c(nc3n2CCCN3c2ccc(OCCN(C)C)cc2)n(CC)c1=O , if possible.
Result: 6.53

Q: Continue with N[C@H]1[C@@H](O)[C@H](n2cnc3c(NCc4cccc(I)c4)ncnc32)O[C@@H]1CO
Result: 5.09

Q: Query CC(C)CN1C(=O)CN(C)C(=O)c2c1ncn2Cc1ccccc1 next
Result: 4.95

###

Ok so here's the combined literature set: pKi for Adenosine receptor A1 (Rattus norvegicus, UniProt P25099).
Target: Adenosine receptor A1 (Rattus norvegicus, UniProt P25099)
Sequence (P25099 whole entry): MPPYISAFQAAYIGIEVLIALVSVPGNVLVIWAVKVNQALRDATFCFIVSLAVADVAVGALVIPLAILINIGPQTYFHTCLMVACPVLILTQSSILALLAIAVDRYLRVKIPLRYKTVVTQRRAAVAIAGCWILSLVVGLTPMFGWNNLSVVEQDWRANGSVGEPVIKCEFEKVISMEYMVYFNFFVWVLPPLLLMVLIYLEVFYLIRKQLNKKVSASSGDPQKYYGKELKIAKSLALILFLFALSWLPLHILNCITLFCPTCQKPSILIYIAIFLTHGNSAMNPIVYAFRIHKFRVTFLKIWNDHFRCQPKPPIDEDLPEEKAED
In simple prose, pKi is minus the logarithm base ten of a concentration in moles per litre.

// below: answered compounds
Q: Tell me the measured pKi of CCCn1c(=O)c2c(ncn2C)n(C)c1=O , please.
Result: 4.42

Q: Would you kindly repeat that for CCCn1c(=O)c2c(ccn2C)n(CCC)c1=O ?
Result: 5.64

Q: Next entry: Cc1c(C)n([C@@H](C)c2ccccc2)c2nc(-c3cccc(Cl)c3)nc(N)c12
Result: 6.31

Q: Okay, and CCNC(=O)[C@H]1OC(n2cnc3c(N)nc(CC4CCC(COC(C)=O)CC4)nc32)[C@H](O)[C@@H]1O (stereo not given in full) ?
Result: 7.85

Q: Field entry: OC[C@H]1O[C@@H](n2cnc3c(NN4CCCC4)ncnc32)[C@H](O)[C@@H]1O (stereo in doubt; 3)
Result: 8.10

// next entry
Q: What does the record list as pKi for Nc1ccnc2c1ncn2[C@@H]1O[C@H](CO)[C@@H](O)[C@H]1O ?
Result: 6.94

###

Target: UniProtKB P25099
Sequence (P25099 whole entry): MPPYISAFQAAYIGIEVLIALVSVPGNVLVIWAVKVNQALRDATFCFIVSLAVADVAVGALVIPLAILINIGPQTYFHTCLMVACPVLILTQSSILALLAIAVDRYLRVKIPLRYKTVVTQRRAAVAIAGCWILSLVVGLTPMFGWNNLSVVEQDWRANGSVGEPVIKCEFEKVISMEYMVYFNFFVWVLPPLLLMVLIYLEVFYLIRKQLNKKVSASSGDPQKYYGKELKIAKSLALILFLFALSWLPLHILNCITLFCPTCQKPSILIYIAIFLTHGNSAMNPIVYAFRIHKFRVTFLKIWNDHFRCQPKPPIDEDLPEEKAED
Record: compiled Ki on UniProtKB P25099 from multiple reports.

Q: Data request, read-out Ki, for COc1cccc(C#CC(=O)Nc2nc3ccccc3c(=O)s2)c1
Result: > 10000 nM

Q: Can you check Nc1nc(NC[C@H]2CCCN2Cc2ccncc2)nc2nc(-c3ccco3)nn12 next?
Result: > 250 nM

Further cases:
Q: What value of measured Ki is listed for CCCn1c(=O)c2c(nc3n2CCCN3c2ccc(OCCN3CCOCC3)cc2)n(CCC)c1=O ?
Result: > 1000 nM

###

Target: Adenosine receptor A1 (Rattus norvegicus, UniProt P25099)
Sequence (P25099 whole entry): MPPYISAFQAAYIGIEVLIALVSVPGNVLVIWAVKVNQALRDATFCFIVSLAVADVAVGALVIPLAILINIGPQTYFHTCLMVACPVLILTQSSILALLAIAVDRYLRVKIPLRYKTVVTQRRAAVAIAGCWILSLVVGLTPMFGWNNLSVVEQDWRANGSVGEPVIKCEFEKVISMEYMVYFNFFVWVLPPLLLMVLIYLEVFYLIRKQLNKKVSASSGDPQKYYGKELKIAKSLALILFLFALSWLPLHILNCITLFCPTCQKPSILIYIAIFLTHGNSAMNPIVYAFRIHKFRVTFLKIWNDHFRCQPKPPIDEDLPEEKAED
Compiled Ki measurements on Adenosine receptor A1 (Rattus norvegicus, UniProt P25099) taken from the literature.

Reference set (3 entries):
Q: Item Nc1nc(NCCCN2CCN(c3ccc(F)cc3F)CC2)nc2nc(-c3ccco3)nn12 has what recorded Ki?
Result: > 0.5 µM

Q: Check Cc1noc(C)c1CN1CCN(c2nc(N)n3nc(-c4ccco4)nc3n2)CC1 too.
Result: > 2.9 µM

Q: And the next one, Cc1sc2nc(NC(=O)CCCc3ccccc3)sc(=O)c2c1C ?
Result: > 10 µM

---
Q: Can you look up the measured Ki of Cn1c(=O)c2c(nc3n2CCCN3Cc2cc(F)c(F)c(F)c2)n(C)c1=O for me?
Result: > 1 µM

Q: Can you check Cn1c(=O)c2cc3nc(-c4ccccc4)[nH]c3cc2n(C)c1=O next?
Result: > 100 µM

Q: Please give the result for Cn1c(=O)c2c(nc3n2CCCN3CCc2ccccn2)n(C)c1=O too.
Result: > 25 µM
